- target_system: hM5 (Homo sapiens, UniProt P08912)
- Construct: expressed in transfected cells
- Sequence (P08912 whole entry): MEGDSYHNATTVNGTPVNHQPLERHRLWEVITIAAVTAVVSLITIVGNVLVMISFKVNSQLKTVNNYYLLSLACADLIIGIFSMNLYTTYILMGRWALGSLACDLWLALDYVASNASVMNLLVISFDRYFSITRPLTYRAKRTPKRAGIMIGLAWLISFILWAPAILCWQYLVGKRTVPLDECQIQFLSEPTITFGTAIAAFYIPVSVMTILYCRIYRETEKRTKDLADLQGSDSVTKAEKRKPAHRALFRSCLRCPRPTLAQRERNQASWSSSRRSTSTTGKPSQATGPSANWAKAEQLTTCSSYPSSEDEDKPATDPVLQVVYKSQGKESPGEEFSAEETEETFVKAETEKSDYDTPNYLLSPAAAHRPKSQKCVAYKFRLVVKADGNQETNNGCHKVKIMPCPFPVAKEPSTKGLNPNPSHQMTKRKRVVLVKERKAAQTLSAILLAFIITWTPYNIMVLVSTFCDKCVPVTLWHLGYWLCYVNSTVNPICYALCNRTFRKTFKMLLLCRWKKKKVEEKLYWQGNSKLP
- run_description: Calcium mobilization concentration-response (IC50 vs EC80 acetylcholine), CHO hM5
- Assay type: cell-based
- study_conditions: CELL LINE hM5; calcium mobilization, EC80 acetylcholine addition; read-out: IC50
pIC50: −log10 of the molar value.
Catalogue of pIC50 values
measure_name: pIC50

O=S(=O)(c1ccc2ncsc2c1)N1CCC(c2ccncc2)CC1 :: < 5.00
O=S(=O)(c1ccc2ncsc2c1)N1CCC(c2cn3ncnc3cc2F)CC1 :: < 5.00
O=S(=O)(c1ccc2c(c1)CCO2)N1CCC(c2nccs2)CC1 :: < 5.00
Cc1nn(C)cc1S(=O)(=O)N1CCC(c2ccc3ncnn3c2)CC1 :: < 5.00
Cc1cc2ncnn2cc1C1=CCN(S(=O)(=O)c2ccc3c(c2)CC(C)O3)CC1 (stereo not drawn) :: < 5.00
Cc1nc2[nH]ccc2nc1C1CCN(S(=O)(=O)c2ccc3ncsc3c2)CC1 :: < 5.00
O=S(=O)(c1ccc2c(c1)CCO2)N1CCC(c2cc3ccncc3s2)CC1 :: < 5.00
O=S(=O)(c1ccc2c(c1)CCO2)N1CCC(c2cc3cnccc3s2)CC1 :: < 5.00
Cc1sc(C#N)nc1C1CCN(S(=O)(=O)c2cnn(C)c2C)CC1 :: < 5.00
Cc1sc(C#N)nc1C1=CCN(S(=O)(=O)c2ccc3c(c2)CCO3)CC1 :: < 5.00
Cc1cc2ncnn2cc1C1CCN(S(=O)(=O)c2c[nH]cn2)CC1 :: < 5.00
COc1cc(C2CCN(S(=O)(=O)c3ccc4c(c3)CCO4)CC2)cn2ncnc12 :: < 5.00
O=S(=O)(c1ccc2c(c1)CCO2)N1CC=C(c2cc3ncnn3cc2Cl)CC1 :: < 5.00
O=S(=O)(c1ccc2c(c1)CCO2)N1CCC(c2cn3ncnc3cc2F)CC1 :: 5.68
O=S(=O)(c1cnn2c1CCC2)N1CCC(c2cn3ncnc3cc2Cl)CC1 :: 7.92
Cc1c(S(=O)(=O)N2CC=C(c3cc4ncnn4cc3Cl)CC2)cnn1C :: 6.60
Cc1cc2ncnn2cc1C1CCN(S(=O)(=O)c2ccc(F)cc2)CC1 :: 5.39
Cc1cc2nccn2nc1C1CCN(S(=O)(=O)c2ccc3c(c2)CCCO3)CC1 :: 5.44
Cc1ccncc1C1CCN(S(=O)(=O)c2cnn3c2CCC3)CC1 :: 6.09
Cc1cc2ncnn2nc1C1CCN(S(=O)(=O)c2ccc3c(c2)N(C)CCO3)CC1 :: 5.80
Cc1c(C2CCN(S(=O)(=O)c3cnn4c3CCC4)CC2)cn2ncnc2c1F :: 7.85
Cc1ccncc1C1CCN(S(=O)(=O)c2cnc(C)n2C)CC1 :: < 5.00
Cc1cc2ncnn2nc1C1=CCN(S(=O)(=O)c2ccc3c(c2)N(C)CCO3)CC1 :: < 5.00
O=S(=O)(c1cc2c(cc1F)OCC2)N1CCC(c2cn3ncnc3cc2C(F)(F)F)CC1 :: 5.68

Ref: patent US20230183237A1
